FYI, the data here is from patent US12286423B2.

Parameter: EC50. Scope: all listed entries.
# Test system: C15_C3 REPLICON
# Experiment notes: C15_C3 replicon assay
# Type: cell-based
Quick note: give the figure in µM, leave out the unit.

// worked examples, EC50 included
Cc1c(C(=O)N[C@]23C(=O)c4c(N)cccc4[C@@]2(O)Oc2cc([C@@H](C)C4CC4)ccc23)[nH]c(=O)n1C [Example 18] :: 1.65
CCC(C)c1ccc2c(c1)OC1(O)c3cccc(N)c3C(=O)C21NC(=O)c1[nH]cc(S(C)(=O)=O)c1C (stereo not shown) [Example 23] :: 0.633
Cc1c(C(=O)N[C@]23C(=O)c4c(N)cccc4[C@@]2(O)Oc2cc([C@H](C)C4CC4)ccc23)[nH]c(=O)n1C [Example 22] :: 1.89

Q: Quick one: EC50 of C[C@H](c1ccc2c(c1)O[C@]1(O)c3cccc(N)c3C(=O)[C@]21NC(=O)[C@H]([C@H](C)O)N(C)C)C1CC1 [Example 15] ?
Result: 0.264
